- systemName: BIR3 domain of human cIAP-1 (residues 267-363) (Homo sapiens (Human))
- Sequence (Q13490 267-363): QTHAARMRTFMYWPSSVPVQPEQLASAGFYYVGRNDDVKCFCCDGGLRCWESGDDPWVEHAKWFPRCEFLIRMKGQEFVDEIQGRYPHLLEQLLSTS
- assayInfo: cIAP-1 in vitro competitive displacement binding assay (fluorescence polarization; Probe A AVPIK(5&6FAM)-amide or Probe B AbuRPFK(5&6FAM)-amide)
- testContext: 3 h; Probe B, @ 0.012 μM; read-out: IC50 or PI cIAP1: PI
Counter-ions that a name gives are not always drawn.
property: inhibition at […] (%)
I only need the number, in %, no unit after it.

Some entries whose results are on file:
C[C@@H]1CN(CC(=O)N2CC(C)(C)c3ncc(Cc4ccc(F)cc4F)cc32)[C@@H](CN2CC[C@@H](F)C2)CN1 [Example 205, hydrochloride] | 97
CC(C)CC(F)(F)c1cc2c(cn1)C(C)(C)CN2C(=O)CN1C[C@@H](C)NC[C@@H]1CN1CCCC1=O [Example 225, hydrochloride] | 72
C[C@@H]1CN(CC(=O)N2CC(C)(C)c3nnc(Cc4ccc(F)cc4F)cc32)[C@@H](CN2CCCC2=O)CN1 [Example 201, hydrochloride] | 88

[ask] Supply recorded inhibition at […] for C[C@@H]1CN(CC(=O)N2CC(C)(C)c3cnc(C(F)(F)c4ccccc4)cc32)[C@@H](Cn2cc(F)cn2)CN1 [Example 176, hydrochloride] here.
[reply] 70

[ask] Supply recorded inhibition at […] for C[C@@H]1CN(CC(=O)N2CC(C)(C)c3c[n+]([O-])c(Cc4ccc(F)cc4F)cc32)[C@@H](C(=O)N(C)C)CN1 [Example 167, hydrochloride] here.
[reply] 84

[ask] Supply recorded inhibition at […] for CCCC(F)(F)c1cc2c(cn1)C(C)(C)CN2C(=O)CN1C[C@@H](C)NC[C@@H]1CN1CCOCC1 [Example 239, hydrochloride] here.
[reply] 72
